SUBJECT_OF_TEST: aurora A kinase (AURKA) (Homo sapiens, UniProt O14965)
Construct: purchased BPS Bioscience (assay run externally by the vendor)
Sequence (O14965 whole entry): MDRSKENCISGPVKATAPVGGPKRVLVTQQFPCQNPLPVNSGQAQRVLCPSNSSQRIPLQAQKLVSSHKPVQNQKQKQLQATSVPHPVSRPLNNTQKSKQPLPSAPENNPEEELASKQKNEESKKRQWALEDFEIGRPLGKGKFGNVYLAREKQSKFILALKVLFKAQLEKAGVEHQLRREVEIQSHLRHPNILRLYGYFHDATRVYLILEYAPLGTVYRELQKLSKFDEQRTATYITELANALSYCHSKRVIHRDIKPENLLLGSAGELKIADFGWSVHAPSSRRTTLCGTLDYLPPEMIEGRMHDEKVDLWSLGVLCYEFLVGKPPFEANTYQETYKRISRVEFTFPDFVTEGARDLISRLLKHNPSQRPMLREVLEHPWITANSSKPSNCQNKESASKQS
ASSAY_INFO: ADP-Glo kinase assay, Aurora A
Assay type: biochemical
CONDITION_LABEL: Log[nM] 4.5; Set1
Classification field: y = Aurora A % Activity Set1 at or over 10%; n = Aurora A % Activity Set1 under 10%.

> print(dat)
                             record.smiles                           subject.of.test  classification
 1            Cc1cccc(Nc2ncnc3[nH]ccc23)c1  aurora A kinase (AURKA) (Homo sapiens, UniProt O14965)               n
 2  c1ccc(Cc2ccc(Nc3ncnc4[nH]ccc34)cc2)cc1  aurora A kinase (AURKA) (Homo sapiens, UniProt O14965)               y
 3           Clc1cccc(Nc2ncnc3[nH]ccc23)c1  aurora A kinase (AURKA) (Homo sapiens, UniProt O14965)               n
 4              Cc1ccccc1Nc1ncnc2[nH]ccc12  aurora A kinase (AURKA) (Homo sapiens, UniProt O14965)               y
 5        Nc1nc(Nc2cccc(Br)c2)c2cc[nH]c2n1  aurora A kinase (AURKA) (Homo sapiens, UniProt O14965)               y
 6             c1ccc(Nc2ncnc3[nH]ccc23)cc1  aurora A kinase (AURKA) (Homo sapiens, UniProt O14965)               y
 7  c1ccc(Oc2ccc(Nc3ncnc4[nH]ccc34)cc2)cc1  aurora A kinase (AURKA) (Homo sapiens, UniProt O14965)               y
 8            Cc1ccc(Nc2ncnc3[nH]ccc23)cc1  aurora A kinase (AURKA) (Homo sapiens, UniProt O14965)               y
 9             Clc1ccccc1Nc1ncnc2[nH]ccc12  aurora A kinase (AURKA) (Homo sapiens, UniProt O14965)               y
10           Clc1ccc(Nc2ncnc3[nH]ccc23)cc1  aurora A kinase (AURKA) (Homo sapiens, UniProt O14965)               y
11           Brc1ccc(Nc2ncnc3[nH]ccc23)cc1  aurora A kinase (AURKA) (Homo sapiens, UniProt O14965)               n

---

The entries below come with measured EGFR % Activity Set3 values attached.
SUBJECT_OF_TEST: EGFR (Homo sapiens, UniProt P00533)
Sequence (P00533 25-1210): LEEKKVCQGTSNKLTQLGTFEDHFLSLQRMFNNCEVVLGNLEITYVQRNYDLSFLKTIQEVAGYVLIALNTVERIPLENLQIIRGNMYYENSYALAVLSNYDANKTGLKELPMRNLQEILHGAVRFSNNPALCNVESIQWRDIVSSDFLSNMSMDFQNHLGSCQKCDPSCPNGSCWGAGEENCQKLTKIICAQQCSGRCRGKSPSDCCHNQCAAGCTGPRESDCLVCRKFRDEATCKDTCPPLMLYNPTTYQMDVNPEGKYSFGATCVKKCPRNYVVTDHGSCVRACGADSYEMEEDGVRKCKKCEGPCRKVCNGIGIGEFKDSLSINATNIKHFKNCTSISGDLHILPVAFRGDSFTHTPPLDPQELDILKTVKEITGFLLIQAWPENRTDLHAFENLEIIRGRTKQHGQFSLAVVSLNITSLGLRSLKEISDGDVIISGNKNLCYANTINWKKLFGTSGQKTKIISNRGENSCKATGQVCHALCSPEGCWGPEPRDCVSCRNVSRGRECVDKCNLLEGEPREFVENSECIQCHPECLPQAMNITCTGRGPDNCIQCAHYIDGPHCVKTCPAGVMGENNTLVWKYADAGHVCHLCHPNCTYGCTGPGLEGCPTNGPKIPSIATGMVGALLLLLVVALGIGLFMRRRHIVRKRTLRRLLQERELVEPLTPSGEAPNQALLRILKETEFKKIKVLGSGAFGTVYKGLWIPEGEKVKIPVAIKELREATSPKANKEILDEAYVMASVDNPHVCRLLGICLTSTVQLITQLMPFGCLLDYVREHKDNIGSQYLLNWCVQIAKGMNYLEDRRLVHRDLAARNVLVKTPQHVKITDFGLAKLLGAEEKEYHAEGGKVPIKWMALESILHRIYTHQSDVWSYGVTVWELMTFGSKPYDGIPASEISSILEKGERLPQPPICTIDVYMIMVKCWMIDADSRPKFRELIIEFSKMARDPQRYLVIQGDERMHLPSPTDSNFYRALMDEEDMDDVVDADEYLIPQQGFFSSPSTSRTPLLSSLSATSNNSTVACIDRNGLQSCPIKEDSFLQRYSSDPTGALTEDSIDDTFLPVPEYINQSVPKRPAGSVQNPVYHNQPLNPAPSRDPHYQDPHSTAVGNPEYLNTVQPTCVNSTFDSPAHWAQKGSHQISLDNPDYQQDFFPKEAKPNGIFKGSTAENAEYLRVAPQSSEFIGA
ASSAY_INFO: ADP-Glo kinase assay, EGFR
Assay type: biochemical
Set-up: purchased BPS Bioscience (assay run externally by the vendor)
CONDITION_LABEL: Log[nM] 3.5; Set3
OBSERVABLE: EGFR % Activity Set3 (%)

> print(dat)
                             record.smiles  reported
 1              Cc1ccccc1Nc1ncnc2[nH]ccc12        23
 2  c1ccc(Oc2ccc(Nc3ncnc4[nH]ccc34)cc2)cc1         5
 3           COc1ccc(Nc2ncnc3[nH]ccc23)cc1        43
 4           Clc1ccc(Nc2ncnc3[nH]ccc23)cc1         4
 5          Fc1cc(Nc2ncnc3[nH]ccc23)ccc1Cl         0
 6            Cc1ccc(Nc2ncnc3[nH]ccc23)cc1        23
 7             c1ccc(Nc2ncnc3[nH]ccc23)cc1         9
 8           Brc1cccc(Nc2ncnc3[nH]ccc23)c1         0
 9     FC(F)(F)c1cccc(Nc2ncnc3[nH]ccc23)c1         3
10         Clc1ccc(Nc2ncnc3[nH]ccc23)cc1Cl         1
11  c1ccc(Cc2ccc(Nc3ncnc4[nH]ccc34)cc2)cc1         3
12           Brc1ccc(Nc2ncnc3[nH]ccc23)cc1         5
13           Clc1cccc(Nc2ncnc3[nH]ccc23)c1         0
14             Clc1ccccc1Nc1ncnc2[nH]ccc12        16
15            Cc1cccc(Nc2ncnc3[nH]ccc23)c1         2
16         Clc1ccc(Nc2ncnc3[nH]ccc23)cc1Br         0
17        Nc1nc(Nc2cccc(Br)c2)c2cc[nH]c2n1        10
